Target: Recombinant G2019S-LRRK2 protein (Homo sapiens, UniProt Q5S007, G2019S)
Sequence (Q5S007 whole entry G2019S): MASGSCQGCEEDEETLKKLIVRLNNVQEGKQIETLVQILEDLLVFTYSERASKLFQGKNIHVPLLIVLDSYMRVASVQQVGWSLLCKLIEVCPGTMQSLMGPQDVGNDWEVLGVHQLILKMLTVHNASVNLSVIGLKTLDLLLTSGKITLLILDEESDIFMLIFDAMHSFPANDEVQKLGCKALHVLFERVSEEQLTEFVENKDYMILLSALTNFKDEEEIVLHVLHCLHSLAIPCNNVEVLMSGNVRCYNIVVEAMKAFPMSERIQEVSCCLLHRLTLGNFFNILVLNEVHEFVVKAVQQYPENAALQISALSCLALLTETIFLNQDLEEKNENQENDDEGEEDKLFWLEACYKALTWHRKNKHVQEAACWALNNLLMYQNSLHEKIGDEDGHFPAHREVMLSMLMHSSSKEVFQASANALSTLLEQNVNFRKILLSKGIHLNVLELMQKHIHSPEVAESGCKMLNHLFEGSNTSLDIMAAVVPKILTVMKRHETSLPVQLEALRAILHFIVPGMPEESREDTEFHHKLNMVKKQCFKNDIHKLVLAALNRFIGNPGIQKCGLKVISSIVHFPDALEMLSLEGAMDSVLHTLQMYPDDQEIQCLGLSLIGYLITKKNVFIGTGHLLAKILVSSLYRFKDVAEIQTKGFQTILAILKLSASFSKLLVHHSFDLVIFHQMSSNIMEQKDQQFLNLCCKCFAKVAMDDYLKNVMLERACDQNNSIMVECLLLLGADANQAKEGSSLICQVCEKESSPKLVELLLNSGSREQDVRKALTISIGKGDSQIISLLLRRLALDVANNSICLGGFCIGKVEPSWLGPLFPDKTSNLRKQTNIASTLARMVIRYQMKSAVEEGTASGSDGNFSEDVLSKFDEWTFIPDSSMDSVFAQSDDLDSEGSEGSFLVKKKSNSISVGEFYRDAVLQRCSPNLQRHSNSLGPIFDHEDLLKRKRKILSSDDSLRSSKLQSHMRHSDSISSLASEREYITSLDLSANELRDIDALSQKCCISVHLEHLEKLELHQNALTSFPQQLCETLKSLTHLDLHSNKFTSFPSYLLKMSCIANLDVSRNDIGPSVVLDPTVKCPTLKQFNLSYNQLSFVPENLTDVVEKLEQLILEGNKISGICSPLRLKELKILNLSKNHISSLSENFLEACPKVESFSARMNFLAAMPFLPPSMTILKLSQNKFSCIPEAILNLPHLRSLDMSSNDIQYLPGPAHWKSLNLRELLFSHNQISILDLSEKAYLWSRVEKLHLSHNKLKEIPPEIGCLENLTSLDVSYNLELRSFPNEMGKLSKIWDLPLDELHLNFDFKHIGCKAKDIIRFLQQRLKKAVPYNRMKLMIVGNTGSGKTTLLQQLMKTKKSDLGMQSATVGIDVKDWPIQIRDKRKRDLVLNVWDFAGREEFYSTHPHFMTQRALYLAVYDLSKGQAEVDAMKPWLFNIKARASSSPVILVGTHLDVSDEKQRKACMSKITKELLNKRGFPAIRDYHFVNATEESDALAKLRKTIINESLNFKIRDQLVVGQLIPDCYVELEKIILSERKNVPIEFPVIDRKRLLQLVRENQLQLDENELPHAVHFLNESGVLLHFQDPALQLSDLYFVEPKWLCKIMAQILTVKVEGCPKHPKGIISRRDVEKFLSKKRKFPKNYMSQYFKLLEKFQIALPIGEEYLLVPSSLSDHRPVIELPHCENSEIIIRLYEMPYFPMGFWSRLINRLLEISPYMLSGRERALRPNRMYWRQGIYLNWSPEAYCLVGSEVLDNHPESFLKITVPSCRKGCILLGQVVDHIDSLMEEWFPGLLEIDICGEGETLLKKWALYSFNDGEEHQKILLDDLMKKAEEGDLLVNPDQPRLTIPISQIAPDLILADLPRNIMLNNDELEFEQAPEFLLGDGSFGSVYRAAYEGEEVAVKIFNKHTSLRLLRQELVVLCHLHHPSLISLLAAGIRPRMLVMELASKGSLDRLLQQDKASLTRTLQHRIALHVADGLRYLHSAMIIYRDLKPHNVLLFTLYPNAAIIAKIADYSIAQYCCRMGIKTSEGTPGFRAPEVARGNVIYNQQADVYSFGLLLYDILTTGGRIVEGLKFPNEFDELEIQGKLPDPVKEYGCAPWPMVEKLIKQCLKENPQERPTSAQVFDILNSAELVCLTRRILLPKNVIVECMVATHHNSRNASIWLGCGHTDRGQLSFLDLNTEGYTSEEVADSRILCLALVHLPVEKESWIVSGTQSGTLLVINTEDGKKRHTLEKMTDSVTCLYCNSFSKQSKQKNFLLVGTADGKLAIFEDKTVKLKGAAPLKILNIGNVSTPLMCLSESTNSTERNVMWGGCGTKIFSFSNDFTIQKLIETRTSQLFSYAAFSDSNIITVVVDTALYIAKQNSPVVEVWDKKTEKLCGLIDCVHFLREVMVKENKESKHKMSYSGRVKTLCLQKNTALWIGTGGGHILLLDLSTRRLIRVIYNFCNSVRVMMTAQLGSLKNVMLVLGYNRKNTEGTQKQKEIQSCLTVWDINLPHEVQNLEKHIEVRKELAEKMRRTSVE
Test: LanthaScreen Kinase Activity Assay (TR-FRET), G2019S-LRRK2
Details: class symbols; 25 μM ATP, 400 nM LRRKtide, 2.9 nM kinase, 60 min at room temperature
observed-property: IC50

# annotated cases, reported IC50 shown
> print(dat)
                                   compound    result
1  COc1ncccc1-c1n[nH]c2ccc(NC(=O)c3c(F)cc4c(cnn4C)c3F)cc12  ≤ 100 nM
2  Cc1nocc1-c1n[nH]c2ccc(NC(=O)c3c(F)cc4c(cnn4C)c3F)cc12  ≤ 100 nM
3  COc1ccc(C)cc1-c1n[nH]c2ccc(NC(=O)c3c(F)cc4c(cnn4C)c3F)cc12  ≤ 100 nM
4  Cc1cc2cncn2c(C)c1C(=O)Nc1ccc2[nH]nc(-c3ccoc3)c2c1  ≤ 100 nM
5  O=C(Nc1ccc2[nH]nc(-c3ccoc3)c2c1)c1ccc2ncoc2c1  ≤ 100 nM

Consider the following items and state reported IC50 for each.
1. Cn1ncc2c(F)c(C(=O)Nc3ccc4[nH]nc(-c5ccncn5)c4c3)c(F)cc21
2. Cn1cc2nc(C(=O)Nc3ccc4[nH]nc(-c5cnco5)c4c3)ccc2n1
3. Cc1n[nH]c2ccc(NC(=O)c3c(F)cc4c(cnn4C)c3F)cc12
4. Cn1ncc2c(F)c(C(=O)Nc3ccc4[nH]nc(N5CCCC5)c4c3)c(F)cc21

Output line:
1: ≤ 100 nM; 2: ≤ 100 nM; 3: ≤ 100 nM; 4: 100 to 1000 nM

Consider the following items and state reported IC50 for each.
1. Cc1nn2ccncc2c1C(=O)Nc1ccc2[nH]nc(-c3ccoc3)c2c1
2. O=C(Nc1ccc2[nH]nc(-c3ccoc3)c2c1)c1ccn2nccc2c1
3. Cc1cccc(-c2n[nH]c3ccc(NC(=O)c4c(F)cc5c(cnn5C)c4F)cc23)c1
4. Cc1cc2nn[nH]c2cc1C(=O)Nc1ccc2[nH]nc(-c3ccncc3)c2c1
5. Cc1cc2cncn2c(C)c1C(=O)Nc1ccc2[nH]nc(C)c2c1
6. Cn1ncc2c(F)c(C(=O)Nc3ccc4[nH]nc(-c5cccnc5)c4c3)c(F)cc21
7. Cc1cc2cnnn2c(C)c1C(=O)Nc1ccc2[nH]nc(-c3ccccc3)c2c1

Output line:
["100 to 1000 nM", "≤ 100 nM", "≤ 100 nM", "≤ 100 nM", "≤ 100 nM", "≤ 100 nM", "≤ 100 nM"]

Consider the following items and state reported IC50 for each.
1. Cn1ncc2c(F)c(C(=O)Nc3ccc4[nH]nc(-n5ccnc5)c4c3)c(F)cc21
2. Cc1cn2cnnc2c(C)c1C(=O)Nc1ccc2[nH]nc(C)c2c1
3. Cc1cc(-c2n[nH]c3ccc(NC(=O)c4c(F)cc5c(cnn5C)c4F)cc23)cc(C)n1

Output line:
["≤ 100 nM", "100 to 1000 nM", "≤ 100 nM"]

Consider the following items and state reported IC50 for each.
1. Cc1noc(C)c1-c1n[nH]c2ccc(NC(=O)c3c(F)cc4c(cnn4C)c3F)cc12
2. Cn1ncc2c(F)c(C(=O)Nc3ccc4[nH]nc(-c5ccccc5OC(F)(F)F)c4c3)c(F)cc21
3. Cn1ncc2cc(C(=O)Nc3ccc4[nH]nc(-c5ccccc5)c4c3)ccc21
4. Cn1ncc2c(F)c(C(=O)Nc3ccc4[nH]nc(C(F)(F)F)c4c3)c(F)cc21
5. Cc1cc2cncn2c(C)c1C(=O)Nc1ccc2[nH]nc(-c3ccccc3)c2c1

Output line:
1000 to 10000 nM
1000 to 10000 nM
100 to 1000 nM
≤ 100 nM
≤ 100 nM

All figures here come from patent US20220162192A1.
